Source listed as patent US12187681B2.

Measured inhibition at 10 μM, listed per entry for reference.
# Assay Target: hERG (human ether-a-go-go related gene potassium channel, KCNH2) (Homo sapiens, UniProt Q12809)
# Construct: expressed in transfected cells; host or cells: HEK293
# Sequence (Q12809 whole entry): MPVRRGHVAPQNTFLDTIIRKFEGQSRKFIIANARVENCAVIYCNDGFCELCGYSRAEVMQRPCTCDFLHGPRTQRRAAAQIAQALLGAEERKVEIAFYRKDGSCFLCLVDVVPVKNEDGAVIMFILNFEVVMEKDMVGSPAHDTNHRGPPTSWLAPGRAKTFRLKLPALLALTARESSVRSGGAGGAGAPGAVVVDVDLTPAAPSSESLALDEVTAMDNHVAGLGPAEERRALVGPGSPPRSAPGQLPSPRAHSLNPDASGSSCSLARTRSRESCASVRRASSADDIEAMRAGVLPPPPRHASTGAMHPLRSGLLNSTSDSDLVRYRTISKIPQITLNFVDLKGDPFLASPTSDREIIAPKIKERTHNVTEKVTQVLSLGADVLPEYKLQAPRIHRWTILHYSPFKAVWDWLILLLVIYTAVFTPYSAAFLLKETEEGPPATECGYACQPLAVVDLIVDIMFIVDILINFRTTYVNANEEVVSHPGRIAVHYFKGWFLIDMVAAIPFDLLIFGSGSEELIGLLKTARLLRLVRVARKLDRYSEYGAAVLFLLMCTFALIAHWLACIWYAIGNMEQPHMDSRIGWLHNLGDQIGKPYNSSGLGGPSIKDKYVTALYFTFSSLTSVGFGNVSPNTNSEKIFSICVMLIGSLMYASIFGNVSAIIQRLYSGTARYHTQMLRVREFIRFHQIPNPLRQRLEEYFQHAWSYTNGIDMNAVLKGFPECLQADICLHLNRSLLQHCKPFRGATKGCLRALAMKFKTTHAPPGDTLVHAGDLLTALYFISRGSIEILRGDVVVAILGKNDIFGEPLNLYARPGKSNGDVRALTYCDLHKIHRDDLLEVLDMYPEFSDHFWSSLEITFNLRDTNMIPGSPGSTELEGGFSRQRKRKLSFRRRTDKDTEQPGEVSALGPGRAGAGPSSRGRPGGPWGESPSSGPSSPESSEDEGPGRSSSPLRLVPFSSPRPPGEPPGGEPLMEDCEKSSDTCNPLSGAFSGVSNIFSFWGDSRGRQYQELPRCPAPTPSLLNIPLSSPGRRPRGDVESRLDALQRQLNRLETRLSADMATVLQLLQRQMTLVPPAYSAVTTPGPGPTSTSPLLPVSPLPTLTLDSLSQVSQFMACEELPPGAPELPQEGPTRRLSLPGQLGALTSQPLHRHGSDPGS
# Procedure Text: hERG channel whole-cell patch clamp (Ion Channel Activity Measurement)
# Type: cell-based
# Condition Label: human, pH 7.4, 10 μM test article, room temperature

Before answering, review these 3 worked examples.
> print(dat)
                            molecule.smiles         readout.name      result
1       Oc1ccc2ccccc2c1Cn1nc(-c2ccccc2)cc1O  inhibition at 10 μM       < 25%
2         Nc1ccc2ccccc2c1Cc1c(N)ccc2ccccc12  inhibition at 10 μM   50 to 75%
3  CCN(CC)CC(=O)Oc1ccc2ccccc2c1Cc1c(OC)ccc2ccccc12  inhibition at 10 μM  75 to 100%

Kindly review the next compound as well.
I'd like to know its inhibition at 10 μM. The compound in question is COc1cccc(C2CCNCC2)c1Cc1c(OC)cccc1C1CCNCC1
25 to 50%
